Target: T1, Nluc-IL23R fusion protein (human, UniProt Q5VWK5 22-629)
T1 construct: range 22-629; expressed with a secretion signal in HEK293 cells; used as crude membrane preparation; also called hIL-23R; human IL-23R; not shown: Nanoluc protein from the expression plasmid N1371 (Promega), N-terminal of IL-23R
T1 sequence (looked up): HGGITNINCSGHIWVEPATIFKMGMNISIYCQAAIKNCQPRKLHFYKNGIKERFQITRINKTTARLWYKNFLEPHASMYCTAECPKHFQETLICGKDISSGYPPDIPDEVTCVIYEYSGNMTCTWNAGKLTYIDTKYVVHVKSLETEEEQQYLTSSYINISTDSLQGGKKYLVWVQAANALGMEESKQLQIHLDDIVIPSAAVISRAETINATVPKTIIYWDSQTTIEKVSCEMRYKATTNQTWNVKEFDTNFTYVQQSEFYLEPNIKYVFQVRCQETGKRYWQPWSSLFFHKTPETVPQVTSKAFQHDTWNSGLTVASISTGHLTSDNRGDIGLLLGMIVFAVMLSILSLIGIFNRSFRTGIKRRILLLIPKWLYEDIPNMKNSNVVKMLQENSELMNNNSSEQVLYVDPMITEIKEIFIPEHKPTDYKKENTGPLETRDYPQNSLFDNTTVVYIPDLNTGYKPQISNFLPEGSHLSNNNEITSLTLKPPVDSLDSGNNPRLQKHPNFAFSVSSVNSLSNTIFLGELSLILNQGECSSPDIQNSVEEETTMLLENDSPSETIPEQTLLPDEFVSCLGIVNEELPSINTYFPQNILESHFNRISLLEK
Assay: Ki from BRET competition (Cheng-Prusoff), Nluc-IL23R membranes
*1 amine or outer side, *2 acyl side, *3 side chain or, on linkers, in order; H or OH if unused. Bridges are numbered along the chain shown (N, C = ends). Where no end group is shown, it is not given here. [ ]: non-standard residue; d: D form. 4‑Aminomethyl‑phenylacetyl = 4-aminomethyl-phenylacetyl unit, its amine closes the lactam, O=C(Cc1ccc(CN[*:1])cc1)[*:2]; 2Nal = N[C@@H](Cc1ccc2ccccc2c1)C(=O)O; AEF = NCCOc1ccc(C[C@H](N)C(=O)O)cc1; αMeL = CC(C)C[C@](C)(N)C(=O)O
observation-type: pKi
For clarity, pKi is expressed as the negative log10 of concentration in mol/L.

Look over these answered cases.
binder	pKi
[4‑Aminomethyl‑phenylacetyl]SCWQC[AEF][2Nal][αMeL]ER-NH2 (lactam N-10; bridge 3-6; not fully specified (bridges); printed as [4-Aminomethyl-phenylacetyl](1c)*SC(2a)WQC(2a)[Y(2-aminoethoxy)][2-Nal][2-Me-Leu]E(1c)R-[NH2], Y = Y(2-aminoethoxy)) [Ref 52]	10.32
H-GCTCWECWWLCS-NH2 (bridge 4-7, 2-11; not fully specified (bridges), compound from Heinis et al., 2020, synthesised for comparison) [I1 (isomer 3)]	6.98
[4‑Aminomethyl‑phenylacetyl]SCWQC[AEF][2Nal][αMeL]E[dR]-NH2 (lactam N-10; bridge 3-6; not fully specified (bridges); printed as [4-Aminomethyl-phenylacetyl](1c)*SC(2a)WQC(2a)[Y(2-aminoethoxy)][2-Nal][2-Me-Leu]E(1c)[{d}R]-[NH2], Y = Y(2-aminoethoxy), R = D-Arg) [Ref 80]	9.82

Exercise: Reported pKi for XQTWQCYWXENG ([Ac]-[Abu](16i)QTWQC(16i)[Y(2-aminoethoxy)]W[2-Me-Lys]ENG-[NH2]; (16i) [2,7] thioether bridge (cystathionine); N-terminal acetyl, C-terminal amide, Y = Y(2-aminoethoxy)) [Compound C] : what is it?
Key: 8.68

Exercise: # get_value(readout='pKi', item= [4‑Aminomethyl‑phenylacetyl]SCWQC[AEF][2Nal][αMeL]ES-NH2 (lactam (positions not given here); bridge 3-6; not fully specified (bridges); printed as [4-Aminomethyl-phenylacetyl](1c)*SC(2a)WQC(2a)[Y(2-aminoethoxy)][2-Nal][2-Me-Leu]E(1c)S-[NH2], Y = Y(2-aminoethoxy)) [Ref 81] )
Key: 9.50
